test system: K-562 leukemia; assay: NCI-60 one-dose screen, 48 h (100 = growth as untreated, 0 = no growth, -100 = all killed); conditions: 10 µM
This is part of a sample that, as a whole, favours compounds with a hit. Of some 83,000 tested, about 20% had one in any assay.
outcome-measure: growth (%)
Form entry: value (%) — number only.

Example cases with answers are listed next.
[
  {
    "compound": "Cn1ncc2cc3c(Nc4ccc(Cl)cc4)cccc3nc21",
    "tgt": "K-562 leukemia",
    "growth / %": 80.2
  },
  {
    "compound": "O=[N+]([O-])c1cc(S(=O)(=O)Nc2ccccc2)ccc1Cl",
    "tgt": "K-562 leukemia",
    "growth / %": 83.9
  },
  {
    "compound": "CC1CCC2(C(=O)O)CCC3(C)C(=CCC4C5(C)CC(O)C(O)C(C)(CO)C5C(O)CC43C)C2C1C (centres undefined)",
    "tgt": "K-562 leukemia",
    "growth / %": 106
  },
  {
    "compound": "CN(C)CCNc1cccc2sc3ccc(O)cc3c(=O)c12",
    "tgt": "K-562 leukemia",
    "growth / %": 22.7
  },
  {
    "compound": "O=C(CNS(=O)(=O)Cc1ccccc1)NNc1ccccc1",
    "tgt": "K-562 leukemia",
    "growth / %": 9.47
  }
]

Report growth for C=C1N(C)c2ccc(Cl)cc2C1(C)C please.
13.2

Report growth for N#CC(=C1C=CC(=NO)C=C1)c1ccccc1 please.
11.9

Report growth for O=C1C=CC(=O)N1c1ccc(N2C(=O)C=CC2=O)cc1 please.
-6.5

* * *

system: NCI-H322M lung; assay: NCI-60 one-dose screen, 48 h (100 = growth as untreated, 0 = no growth, -100 = all killed); conditions: 10 µM
The panel holds about 83,000 compounds, 20% with a hit somewhere; the sample as a whole holds those more often.
outcome-measure: growth (%)
Form entry: value (%) — number only.

Report growth for O=S(=O)(c1cc(Cl)ccc1O)c1cc(Cl)ccc1O please.
106

Report growth for Cc1cc(N=C2C=CC(=[N+](C)C)C=C2)c(N)cc1N please.
93.7

* * *

test system: SN12C renal; assay: NCI-60 one-dose screen, 48 h (100 = growth as untreated, 0 = no growth, -100 = all killed); details: 10 µM
This is part of a sample that, as a whole, favours compounds with a hit. Of some 83,000 tested, about 20% had one in any assay.
outcome-measure: growth (%)
Form entry: value (%) — number only.

Example cases with answers are listed next.
[
  {
    "compound": "COc1cccc(C(c2cc3c(cc2O)OCO3)N2CCOCC2)c1OC (stereo not given)",
    "growth (%)": 97.8
  },
  {
    "compound": "COc1ccc2c(c1)[nH]c1c(/C=C/c3ccccc3)nccc12",
    "growth (%)": 78.7
  },
  {
    "compound": "O=S(=O)(c1cc(Cl)ccc1O)c1cc(Cl)ccc1O",
    "growth (%)": 80.4
  },
  {
    "compound": "Cc1cc(O)c2c(c1O)C(=O)C13C(=C2O)C(=O)C2C(O)C1C1C(O)C3C(=O)C3=C(O)c4c(O)cc(C)c(O)c4C(=O)C321 (stereo not given)",
    "growth (%)": 12.7
  },
  {
    "compound": "COc1cc(N)ccc1Nc1c2ccccc2nc2ccccc12",
    "growth (%)": 81
  },
  {
    "compound": "S=C1SCN(CCc2ccccc2)CN1CCc1ccccc1",
    "growth (%)": 101
  }
]

Could you share what growth was measured for NCc1c(O)ccc2ccccc12 , tested on SN12C renal?
90.9

Could you share what growth was measured for O=[N+]([O-])c1cc(S(=O)(=O)Nc2ccccc2)ccc1Cl , tested on SN12C renal?
95.7

Could you share what growth was measured for CN(C)CCNc1cccc2sc3ccc(O)cc3c(=O)c12 , tested on SN12C renal?
40.4

Could you share what growth was measured for Cn1ncc2cc3c(Nc4ccc(Cl)cc4)cccc3nc21 , tested on SN12C renal?
93.7

* * *

tested on: MOLT-4 leukemia; assay: NCI-60 one-dose screen, 48 h (100 = growth as untreated, 0 = no growth, -100 = all killed); settings: 10 µM unless noted
Compounds without any hit were thinned out: in the full panel of roughly 83,000, 20% have a hit.
Bucketed by reported growth, buckets being group 1 = under 50%, group 2 = from 50% up to 90%, group 3 = 90% and over

Worked examples follow.
[
  {
    "molecule": "CCOC(=O)[C@]1(Br)CC[C@@]1(Br)C(=O)OCC",
    "cat": "group 1"
  },
  {
    "molecule": "O=C1C(Cl)=C(Cl)C(Cl)(Cl)C(Cl)C1(Cl)Cl (stereo unspecified)",
    "cat": "group 3"
  },
  {
    "molecule": "COc1ccc(C(C#N)=C2C=CC(=NO)C=C2)cc1",
    "cat": "group 2"
  },
  {
    "molecule": "O=C(NC(=S)Nc1ccccn1)c1ccccc1",
    "cat": "group 3"
  },
  {
    "molecule": "N#C/C(=C/N1C(=O)/C(=C/c2ccc([N+](=O)[O-])cc2)SC1=S)c1nc2ccccc2s1",
    "cat": "group 2"
  }
]

# input for lookup
Category lookup for the molecule NCc1c(O)ccc2ccccc12
group 3

* * *

tested on: HT29 colon; assay: NCI-60 one-dose screen, 48 h (100 = growth as untreated, 0 = no growth, -100 = all killed); conditions: 10 µM
About 83,000 compounds went through this panel and 20% of them were active in at least one assay; those are over-represented in the sample as a whole.
outcome-measure: growth (%)
Form entry: value (%) — number only.

Example cases with answers are listed next.
[
  {
    "substance-smiles": "Cn1ncc2cc3c(Nc4ccc(Cl)cc4)cccc3nc21",
    "tgt": "HT29 colon",
    "growth / %": 78.7
  },
  {
    "substance-smiles": "O=C1c2cccc3cc([N+](=O)[O-])cc(c23)C(=O)N1CCN1CCCC1",
    "tgt": "HT29 colon",
    "growth / %": 2.59
  },
  {
    "substance-smiles": "O=Nc1ccc(Nc2ccccc2)cc1",
    "tgt": "HT29 colon",
    "growth / %": 95.1
  },
  {
    "substance-smiles": "O=C1c2ccccc2CCC1(Br)Br",
    "tgt": "HT29 colon",
    "growth / %": 12
  },
  {
    "substance-smiles": "CN(CC(=O)O)c1ccc(/C=C/c2ccnc3ccccc23)cc1",
    "tgt": "HT29 colon",
    "growth / %": 88.6
  }
]

Report growth for O=C(O)c1ccccc1.[Ag] please.
97.9

Report growth for O=C(NC(=S)Nc1ccccn1)c1ccccc1 please.
87.5

* * *

tested on: MDA-MB-231 breast; assay: NCI-60 one-dose screen, 48 h (100 = growth as untreated, 0 = no growth, -100 = all killed); conditions: 10 µM
This is part of a sample that, as a whole, favours compounds with a hit. Of some 83,000 tested, about 20% had one in any assay.
Doc: threshold 60% (exclusive). Items with growth beneath it return met; others return not met.

Worked examples follow.
[
  {
    "compound": "COc1cccc(C(c2cc3c(cc2O)OCO3)N2CCOCC2)c1OC (stereo not given)",
    "tgt": "MDA-MB-231 breast",
    "cat": "not met"
  },
  {
    "compound": "O=C1C(Cl)=C(Cl)C(Cl)(Cl)C(Cl)C1(Cl)Cl (stereo not given)",
    "tgt": "MDA-MB-231 breast",
    "cat": "not met"
  }
]

Say whether its growth is strictly beneath 60%. Entry: O=c1[nH]cc(/C=N\Nc2ccccc2)c(=O)[nH]1
not met

Say whether its growth is strictly beneath 60%. Entry: O=C1c2cccc3cc([N+](=O)[O-])cc(c23)C(=O)N1CCN1CCCC1
met

Say whether its growth is strictly beneath 60%. Entry: N#CC(=C1C=CC(=NO)C=C1)c1ccccc1
met

Say whether its growth is strictly beneath 60%. Entry: O=C1C=CC(=O)N1c1ccc(N2C(=O)C=CC2=O)cc1
not met

* * *

test system: KM12 colon; test: NCI-60 one-dose screen, 48 h (100 = growth as untreated, 0 = no growth, -100 = all killed); details: 10 µM
This is part of a sample that, as a whole, favours compounds with a hit. Of some 83,000 tested, about 20% had one in any assay.
Measured growth accompanies every entry in the list below.
Form entry: value (%) — number only.

[
  {
    "molecule": "C=C1N(C)c2ccc(Cl)cc2C1(C)C",
    "growth [%]": 40.2
  }
]

Report growth for ClCCn1c(CCl)nc2ccc(Cl)cc21 please.
-43

Report growth for Nc1nc(N)c2cc(Sc3ccc4ccccc4c3)ccc2n1 please.
23.8

Report growth for O=C(NC(=S)Nc1ccccn1)c1ccccc1 please.
97
